- assaySystem: EGFR on A431 epidermoid carcinoma cells (human, UniProt P00533 25-1210)
- assayInfo: cell-based or functional assay
measurementType: ADCC EC50 (Molar)
Answer in Molar, number only, no unit symbol.

Ask: Look up ADCC EC50 for this binder: H1H141P (antibody, human IgG1, V domains shown, Human IgG1 Fc (H1H)) VH: QVQLQESGPGLVKPSQTLSLTCTVSGGSISSGDYYWNWIRQYPGKGLELIGYIYYSGITYYNPSLKSRLTISLDTSKNQFSLKLSSVTAADTAVYYCARDRVELRAFDIWGQGTMVTVSS VL: DIQMTQSPSSLSASVGDRVTITCQASQDISNYLNWYQQKPGKAPKLLINDASNLETGVPSRFSGSGSGTDFTFTISSLQPEDIATYYCQHYDSLPLTFGQGTRLEIK
Reply: 2.78e-12

Ask: Look up ADCC EC50 for this binder: H1H153P (antibody, human IgG1, V domains shown, Human IgG1 Fc (H1H)) VH: QVQLVESGGGVVQPGKSLRLSCAASGFTFSIYGMNWVRQAPGKGLDWVAVISDDGSNKDYVDSVRGRFTISRDNSKNTLYLQMNSLSAEDTAVYYCAKDRITGTHYYGLDVWGQGTTVTVSS VL: DIQMTQSPSSLSASVGDRITITCRASQDIANYLAWFQQKPGNAPTSLIYAASILQSGVPSKFSGSGSGTDFTLTITSLQPEDFASYYCQQYNRKPWTFGRGTKVEIK
Reply: 2.65e-11

Ask: Look up ADCC EC50 for this binder: H1H159P (antibody, human IgG1, V domains shown, Human IgG1 Fc (H1H)) VH: EVQLVESGGGLVQPGGSLRLSCAASRFTFTNYWMSWVRQAPGKGLEWVAKIKQDGSEKYYLDSVKDRFTISRDNAKNSLYLQMNSLRAEDTAVYYCASSSSWYDYYYGMDVWGHGTTVTVSS VL: EIVLTQSPDFQSVTPKEKVTITCRASQSIGTNLHWYQQRPDQSPKLLIKFASQSFSGVPSRFSGSGSGTDFTLTINSLEAEDAATYYCHQTNFLPHTFGGGTKVEIKR
Reply: 2.69e-09
